- Tested on: mouse organs
- assaySummary: In vivo activity screening in mice: organ mean total flux (p/s) of luciferase activity after injection of F2 LNP pools (Table 6, FIG. 7A-7C)
- testSettings: Mouse 5, dose 0.5 mg/kg, luciferase mRNA
Marks after values point to notes of the source that are not given here.

{"molecule": "CCCCC/C=C\\C/C=C\\CCCCCCCCC(CCCCCCCC/C=C\\C/C=C\\CCCCC)OC(=O)CCCN(C)C [MC3, reference compound]", "Organ Mean Total Flux Muscle": "10.0 p/s (×10^6)"}
{"molecule": "CCCCC/C=C\\CCOC(=O)CCCCC(=O)OCC(COC(=O)CCCCC(=O)OCC/C=C\\CCCCC)(COC(=O)CCC(CCCCCC)OC(=O)NCCN1CCCC1)COC(=O)CC12CC3CC(CC(C3)C1)C2 (stereo not shown)", "Organ Mean Total Flux Muscle": "34.1 p/s (×10^6)"}
{"molecule": "CCCCC/C=C\\CCCOC(=O)CCCCC(=O)OCC(COC(=O)CCCCC(=O)OCCC/C=C\\CCCCC)(COC(=O)CCCCC(=O)OCCC/C=C\\CCCCC)COC(=O)CCC(CCCCCC)OC(=O)NCCN1CCCC1 (stereo not shown)", "Organ Mean Total Flux Muscle": "62.4 p/s (×10^6)"}
{"molecule": "CCCCCCCCCC(C)OC(=O)CCCCCCC(=O)OCC(COC(=O)CCCCCCC(=O)OC(C)CCCCCCCCC)(COC(=O)CCCCCCC(=O)OC(C)CCCCCCCCC)COC(=O)CCC(CCCCCC)OC(=O)NCCN1CCCC1 (stereo not shown)", "Organ Mean Total Flux Muscle": "10.0 p/s (×10^6)"}
{"molecule": "CCCCC/C=C\\CCOC(=O)CCCCCCC(=O)OCC(COC(=O)CCCCCCC(=O)OCC/C=C\\CCCCC)(COC(=O)CCCCCCC(=O)OCC/C=C\\CCCCC)COC(=O)CCC(CCCCCC)OC(=O)OCCCN1CCCC1 (stereo not shown)", "Organ Mean Total Flux Muscle": "1.0 p/s (×10^6)"}
{"molecule": "CCCC/C=C\\CCOC(=O)CCCCCCC(=O)OCC(COC(=O)CCCCCCC(=O)OCC/C=C\\CCCC)(COC(=O)CCCCCCC(=O)OCC/C=C\\CCCC)COC(=O)CCC(CCCCCC)OC(=O)NCCN1CCCC1 (stereo not shown)", "Organ Mean Total Flux Muscle": "8.0 p/s (×10^6)"}
{"molecule": "CCCCCCCCCC(C)OC(=O)CCCCCC(=O)OCC(COC(=O)CCCCCC(=O)OC(C)CCCCCCCCC)(COC(=O)CCCCCC(=O)OC(C)CCCCCCCCC)COC(=O)CCC(CCCCCC)OC(=O)NCCN1CCCC1 (stereo not shown)", "Organ Mean Total Flux Muscle": "25.8 p/s (×10^6)"}

---

# Organ Mean Total Flux Liver annotations
- System: mouse organs
- assaySummary: In vivo activity screening in mice: organ mean total flux (p/s) of luciferase activity after injection of F2 LNP pools (Table 6, FIG. 7A-7C)
- testSettings: Mouse 12, dose 0.5 mg/kg, luciferase mRNA
Marks after values point to notes of the source that are not given here.

{"compound": "CCCCC/C=C\\CCOC(=O)CCCCC(=O)OCC(COC(=O)CCCCC(=O)OCC/C=C\\CCCCC)(COC(=O)CCC(CCCCCC)OC(=O)NCCN1CCCC1)COC(=O)CC1CCC1 (stereo not drawn)", "Organ Mean Total Flux Liver": "127.7 p/s (×10^6)"}
{"compound": "CCCCC/C=C\\CCOC(=O)CCCCC(=O)OCC(COC(=O)CCCCC(=O)OCC/C=C\\CCCCC)(COC(=O)CCCCC(=O)OCC/C=C\\CCCCC)COC(=O)CCC(CCCCCC)OC(=O)NCCN1CCCC1 (stereo not drawn)", "Organ Mean Total Flux Liver": "620.0 p/s (×10^6)"}
{"compound": "CCCCC/C=C\\CCOC(=O)CCCCC(=O)OCC(COC(=O)CCCCC(=O)OCC/C=C\\CCCCC)(COC(=O)CCC(CCCCCC)OC(=O)NCCN1CCCC1)COC(=O)C12CCC(F)(CC1)CC2 (stereo not drawn)", "Organ Mean Total Flux Liver": "528.7 p/s (×10^6)"}
{"compound": "CCCCC/C=C\\CCOC(=O)CCCCC(=O)OCC(COC(=O)CCCCC(=O)OCC/C=C\\CCCCC)(COC(=O)CCC(CCCCCC)OC(=O)NCCN1CCCC1)COC(=O)C12CCC(CC1)CC2 (stereo not drawn)", "Organ Mean Total Flux Liver": "220.0 p/s (×10^6)"}
{"compound": "CCCCC/C=C\\CCOC(=O)CCCCC(=O)OCC(COC(=O)CCCCC(=O)OCC/C=C\\CCCCC)(COC(=O)CCC(CCCCCC)OC(=O)NCCN1CCCC1)COC(=O)C1CC2C(C1)C2(F)F (stereo not drawn)", "Organ Mean Total Flux Liver": "727.0 p/s (×10^6)"}
{"compound": "CCCCC/C=C\\CCOC(=O)CCCCC(=O)OCC(COC(=O)CCCCC(=O)OCC/C=C\\CCCCC)(COC(=O)CCC(CCCCCC)OC(=O)NCCN1CCCC1)COC(=O)CC12CC3CC(CC(C3)C1)C2 (stereo not drawn)", "Organ Mean Total Flux Liver": "585.3 p/s (×10^6)"}
{"compound": "CCCCC/C=C\\CCOC(=O)CCCCC(=O)OCC(COC(=O)CCCCC(=O)OCC/C=C\\CCCCC)(COC(=O)CCC(CCCCCC)OC(=O)NCCN1CCCC1)COC(=O)CC12CC(C1)C2 (stereo not drawn)", "Organ Mean Total Flux Liver": "404.7 p/s (×10^6)"}
{"compound": "CCCCC/C=C\\CCOC(=O)CCCCC(=O)OCC(COC(=O)CCCCC(=O)OCC/C=C\\CCCCC)(COC(=O)CCC(CCCCCC)OC(=O)NCCN1CCCC1)COC(=O)[C@]12CC[C@H](CC1)C2 (stereo partly drawn)", "Organ Mean Total Flux Liver": "177.0 p/s (×10^6)"}
{"compound": "CCCCC/C=C\\CCOC(=O)CCCCC(=O)OCC(COC(=O)CCCCC(=O)OCC/C=C\\CCCCC)(COC(=O)CCC(CCCCCC)OC(=O)NCCN1CCCC1)COC(=O)C1CC2(C1)CC(F)(F)C2 (stereo not drawn)", "Organ Mean Total Flux Liver": "273.0 p/s (×10^6)"}
{"compound": "CCCCC/C=C\\C/C=C\\CCCCCCCCC(CCCCCCCC/C=C\\C/C=C\\CCCCC)OC(=O)CCCN(C)C [MC3, reference compound]", "Organ Mean Total Flux Liver": "2307 p/s (×10^6)"}
{"compound": "CCCCC/C=C\\CCOC(=O)CCCCC(=O)OCC(COC(=O)CCCCC(=O)OCC/C=C\\CCCCC)(COC(=O)CCC(CCCCCC)OC(=O)NCCN1CCCC1)COC(=O)C12CCCC1C2 (stereo not drawn)", "Organ Mean Total Flux Liver": "306.7 p/s (×10^6)"}
{"compound": "CCCCC/C=C\\CCOC(=O)CCCCC(=O)OCC(COC(=O)CCCCC(=O)OCC/C=C\\CCCCC)(COC(=O)CCC(CCCCCC)OC(=O)NCCN1CCCC1)COC(=O)C1(C2CCCCC2)CCCCC1 (stereo not drawn)", "Organ Mean Total Flux Liver": "213.0 p/s (×10^6)"}
